Provenance of the data: PubChem BioAssay AID602292

- tested system: Thyrotropin receptor (Homo sapiens) (UniProt P16473)
- Sequence (P16473 whole entry, looked up): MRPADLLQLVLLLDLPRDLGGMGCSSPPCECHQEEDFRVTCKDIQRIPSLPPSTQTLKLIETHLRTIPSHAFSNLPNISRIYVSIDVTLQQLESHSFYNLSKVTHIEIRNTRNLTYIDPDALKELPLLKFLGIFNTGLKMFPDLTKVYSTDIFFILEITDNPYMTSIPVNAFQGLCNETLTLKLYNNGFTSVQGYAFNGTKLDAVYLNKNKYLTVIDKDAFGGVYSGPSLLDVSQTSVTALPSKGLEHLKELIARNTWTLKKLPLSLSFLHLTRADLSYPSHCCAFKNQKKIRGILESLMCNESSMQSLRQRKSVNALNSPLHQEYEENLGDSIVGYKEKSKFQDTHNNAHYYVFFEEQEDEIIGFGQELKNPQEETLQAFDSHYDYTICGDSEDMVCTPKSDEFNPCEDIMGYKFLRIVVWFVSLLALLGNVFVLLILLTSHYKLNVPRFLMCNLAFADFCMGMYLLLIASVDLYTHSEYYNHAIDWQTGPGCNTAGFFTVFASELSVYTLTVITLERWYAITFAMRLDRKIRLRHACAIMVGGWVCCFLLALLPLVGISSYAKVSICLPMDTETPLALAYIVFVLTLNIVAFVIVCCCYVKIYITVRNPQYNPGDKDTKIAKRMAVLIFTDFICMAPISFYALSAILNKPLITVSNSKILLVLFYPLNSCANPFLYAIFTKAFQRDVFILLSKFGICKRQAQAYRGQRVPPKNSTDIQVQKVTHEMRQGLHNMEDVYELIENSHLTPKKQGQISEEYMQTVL
- experimental protocol: qHTS for antagonists of the Thyroid Stimulation Hormone Receptor: Hit Validation in Primary Screen; also: nearly all actives have a fitted effect of over 80% in size
- measurement context: TSHR-expressing cells, cAMP antagonist mode; series mostly up to 58 µM
Out of some 1,300 compounds screened, about 380 (29%) were called active. About 37% were inconclusive and are not listed. Calls follow the shape of the dose curve; as a rule, active = well fitted inhibition curve with a large enough effect; inconclusive = small, poorly fitted or top-dose-only effect; inactive = flat fitted curve, though single readings scatter. Some of the results follow.
Labels: active, inactive

[
  {
    "compound": "COc1cccc(O)c1CN1CCC(C(=O)Nc2ccc(Oc3cccnc3)cc2)CC1",
    "class assignment": "inactive"
  },
  {
    "compound": "CC(=O)Nc1ccc(S(=O)(=O)Nc2c(NC3CCCCC3)c3ccccc3oc2=O)cc1",
    "class assignment": "inactive"
  },
  {
    "compound": "N#Cc1cccc(NC(=O)COC(=O)c2cc(S(=O)(=O)Nc3ccccc3Cl)ccc2O)c1",
    "class assignment": "active"
  },
  {
    "compound": "Cc1ccc(NC(=O)c2ccccc2NS(=O)(=O)c2ccc(F)cc2)cc1S(=O)(=O)N1CCCCC1",
    "class assignment": "active"
  },
  {
    "compound": "CCc1ccccc1NC(=O)C1CCCN(S(=O)(=O)c2ccc3c(c2)CC(C)N3C(C)=O)C1 (stereo not given)",
    "class assignment": "inactive"
  },
  {
    "compound": "O=C(Nc1nnc(S(=O)(=O)N2CCCC2)s1)c1ccccc1F",
    "class assignment": "inactive"
  },
  {
    "compound": "CC(=O)c1cccc(NS(=O)(=O)c2cc(-c3cnc(C4CC4)o3)ccc2C)c1",
    "class assignment": "active"
  },
  {
    "compound": "CC(=O)c1cccc(NC(=O)c2sc3nc4n(c(=O)c3c2C)CCCC4)c1",
    "class assignment": "inactive"
  },
  {
    "compound": "C=CCC1(CC=C)CCCN1C(=O)c1cc(COc2ccc(C)nc2)on1",
    "class assignment": "active"
  },
  {
    "compound": "COC(=O)c1ccc(NC(=O)c2ccccc2)o1",
    "class assignment": "inactive"
  }
]

---

- tested system: Thyrotropin receptor (Homo sapiens)
- experimental protocol: qHTS for antagonists of the Thyroid Stimulation Hormone Receptor: Hit Validation in Primary Screen; also: nearly all actives have a fitted effect of over 80% in size
- measurement context: TSHR-expressing cells, cAMP antagonist mode; series mostly up to 58 µM
Hit rate of the full screen: of about 1,300 compounds, about 380 (29%) were called active. Another 37% or so got no clear call; they are omitted. Calls come from the whole dose curve; as a rule, active = well fitted inhibition curve with a large enough effect; inconclusive = small, poorly fitted or top-dose-only effect; inactive = flat fitted curve, though single readings scatter. The list shows a part of the results.
Labels: active, inactive

[
  {
    "molecule": "O=C(Cn1ncc2c([nH]c3ccccc32)c1=O)NCC1CCN(Cc2ccc(F)cc2)CC1",
    "tested system": "Thyrotropin receptor (Homo sapiens)",
    "class assignment": "inactive"
  },
  {
    "molecule": "COc1cccc(CN(C)C(=O)c2ccc(OCC(=O)Nc3cccc(C(F)(F)F)c3)c(OC)c2)c1",
    "tested system": "Thyrotropin receptor (Homo sapiens)",
    "class assignment": "active"
  },
  {
    "molecule": "COCCCn1c(=O)c2sccc2n(Cc2cccc(C)c2)c1=O",
    "tested system": "Thyrotropin receptor (Homo sapiens)",
    "class assignment": "inactive"
  },
  {
    "molecule": "COc1ccc(-c2nc(CS(=O)CC(=O)NCc3ccccc3)c(C)o2)cc1OC (configuration not stated)",
    "tested system": "Thyrotropin receptor (Homo sapiens)",
    "class assignment": "inactive"
  },
  {
    "molecule": "O=C(CSc1ccccn1)Nc1cccc2ccccc12",
    "tested system": "Thyrotropin receptor (Homo sapiens)",
    "class assignment": "inactive"
  },
  {
    "molecule": "O=C(CNC(=O)c1ccco1)OCC(=O)c1ccccc1",
    "tested system": "Thyrotropin receptor (Homo sapiens)",
    "class assignment": "inactive"
  },
  {
    "molecule": "O=C(COc1ccc(Cl)cc1Cl)Nc1ccc(C(=O)Nc2ccccc2C(=O)O)cc1",
    "tested system": "Thyrotropin receptor (Homo sapiens)",
    "class assignment": "active"
  },
  {
    "molecule": "CC(NC(=O)c1cc(=O)[nH]c2ccccc12)c1ccc(F)cc1F (configuration not stated)",
    "tested system": "Thyrotropin receptor (Homo sapiens)",
    "class assignment": "inactive"
  },
  {
    "molecule": "COc1ccc(CCNC(=O)c2ccc(-c3ccc([N+](=O)[O-])cc3Cl)o2)cc1OC",
    "tested system": "Thyrotropin receptor (Homo sapiens)",
    "class assignment": "active"
  },
  {
    "molecule": "N#Cc1c(C(F)(F)F)cc(-c2ccc(Cl)cc2)[nH]c1=O",
    "tested system": "Thyrotropin receptor (Homo sapiens)",
    "class assignment": "active"
  },
  {
    "molecule": "O=C1C=C(c2ccc(Cl)c(C(F)(F)F)c2)C[C@@H](c2ccc(Cl)cc2)C1",
    "tested system": "Thyrotropin receptor (Homo sapiens)",
    "class assignment": "inactive"
  },
  {
    "molecule": "CSc1nc(-c2ccc(Cl)cc2Cl)[nH]c(=O)c1C#N",
    "tested system": "Thyrotropin receptor (Homo sapiens)",
    "class assignment": "active"
  },
  {
    "molecule": "COCC(C)NC(=O)C1c2ccccc2Oc2ccccc21 (configuration not stated)",
    "tested system": "Thyrotropin receptor (Homo sapiens)",
    "class assignment": "inactive"
  },
  {
    "molecule": "O=C(NC(=S)Nc1ccccc1)c1cc(-c2ccccc2)nc2ccccc12",
    "tested system": "Thyrotropin receptor (Homo sapiens)",
    "class assignment": "inactive"
  },
  {
    "molecule": "O=C(Nc1ccc(Cl)cc1)c1cc2c(cc1O)[nH]c1ccccc12",
    "tested system": "Thyrotropin receptor (Homo sapiens)",
    "class assignment": "active"
  },
  {
    "molecule": "COc1ccc(CC(=O)Nc2cccc(-c3nnc(-c4cccc(C)c4)o3)c2)cc1OC",
    "tested system": "Thyrotropin receptor (Homo sapiens)",
    "class assignment": "active"
  },
  {
    "molecule": "Cc1ccc(NC(=O)Cn2ncc3c([nH]c4ccccc43)c2=O)cc1Cl",
    "tested system": "Thyrotropin receptor (Homo sapiens)",
    "class assignment": "inactive"
  }
]

---

- tested system: Thyrotropin receptor (Homo sapiens) (UniProt P16473)
- experimental protocol: qHTS for antagonists of the Thyroid Stimulation Hormone Receptor: Hit Validation in Primary Screen; also: nearly all actives have a fitted effect of over 80% in size
- measurement context: TSHR-expressing cells, cAMP antagonist mode; series mostly up to 58 µM
The campaign covered roughly 1,300 compounds. About 380 (29%) were called active. Roughly 37% stayed inconclusive and do not appear here. Calls follow the shape of the dose curve; as a rule, active = well fitted inhibition curve with a large enough effect; inconclusive = small, poorly fitted or top-dose-only effect; inactive = flat fitted curve, though single readings scatter. Some of the results follow.
Labels: 1 for active, 0 for inactive

[
  {
    "compound": "COc1ccc(/C=C/C(=O)c2ccc(NS(=O)(=O)c3ccc(C)cc3)cc2)cc1O",
    "class assignment": 1
  },
  {
    "compound": "COc1cccc(CNC(=O)CCCC(=O)NC(C)CCc2ccccc2)c1 (stereo unspecified)",
    "class assignment": 0
  },
  {
    "compound": "CCCn1c(COc2ccccc2OC)nc2ccccc21",
    "class assignment": 0
  },
  {
    "compound": "COc1cccc(COc2cc3ccccc3nc2C)c1",
    "class assignment": 1
  },
  {
    "compound": "O=C(NC(Nc1nc2ccc([N+](=O)[O-])cc2s1)(C(F)(F)F)C(F)(F)F)c1ccccc1",
    "class assignment": 1
  },
  {
    "compound": "COc1ccccc1CNS(=O)(=O)c1ccc(-n2cccn2)cc1",
    "class assignment": 0
  },
  {
    "compound": "Cc1noc(C)c1COc1ccccc1C(=O)N(C)Cc1ccc(C(C)(C)C)cc1",
    "class assignment": 1
  },
  {
    "compound": "COC(=O)c1ccc(COc2cc(O)c3c(c2)OC(C)(C)CC3=O)cc1",
    "class assignment": 1
  },
  {
    "compound": "CC(C)OCCCn1c(=O)c2ccccc2n2c(CCC(=O)NC3CCN(Cc4ccccc4)CC3)nnc12",
    "class assignment": 0
  },
  {
    "compound": "CCOC(=O)COc1ccccc1/C=C\\[N+](=O)[O-]",
    "class assignment": 1
  },
  {
    "compound": "COc1cccc(/C=N/NC(=O)C(=O)N2CCCC2)c1O",
    "class assignment": 0
  },
  {
    "compound": "C=CCN1C(=O)/C(=C/c2ccc(OC(C)=O)c(OCC)c2[N+](=O)[O-])SC1=S",
    "class assignment": 1
  },
  {
    "compound": "O=C(Nc1ccc2nc3n(c(=O)c2c1)CCCCC3)C(=O)N1CCN(c2ccccc2F)CC1",
    "class assignment": 0
  },
  {
    "compound": "S=C(Nc1ccc(Oc2ccccc2)cc1)NC1CCCCCC1",
    "class assignment": 1
  },
  {
    "compound": "COc1cc(/C=C/C(=O)c2ccc(NS(=O)(=O)c3ccc(C)cc3)cc2)ccc1OC(F)F",
    "class assignment": 0
  },
  {
    "compound": "Cc1ccc(-c2ccc(/C=N/N=C3/NC(=O)C(CC(=O)O)S3)o2)c([N+](=O)[O-])c1 (stereo unspecified)",
    "class assignment": 0
  }
]
